Biological target: Ikaros (IKZF1) (Homo sapiens, UniProt Q13422+Q96SW2)
Construct: Ikaros degradation in the H929 cell line was investigated; endogenous in cells; host or cells: H929
Sequence (Q13422 whole entry, one chain of several): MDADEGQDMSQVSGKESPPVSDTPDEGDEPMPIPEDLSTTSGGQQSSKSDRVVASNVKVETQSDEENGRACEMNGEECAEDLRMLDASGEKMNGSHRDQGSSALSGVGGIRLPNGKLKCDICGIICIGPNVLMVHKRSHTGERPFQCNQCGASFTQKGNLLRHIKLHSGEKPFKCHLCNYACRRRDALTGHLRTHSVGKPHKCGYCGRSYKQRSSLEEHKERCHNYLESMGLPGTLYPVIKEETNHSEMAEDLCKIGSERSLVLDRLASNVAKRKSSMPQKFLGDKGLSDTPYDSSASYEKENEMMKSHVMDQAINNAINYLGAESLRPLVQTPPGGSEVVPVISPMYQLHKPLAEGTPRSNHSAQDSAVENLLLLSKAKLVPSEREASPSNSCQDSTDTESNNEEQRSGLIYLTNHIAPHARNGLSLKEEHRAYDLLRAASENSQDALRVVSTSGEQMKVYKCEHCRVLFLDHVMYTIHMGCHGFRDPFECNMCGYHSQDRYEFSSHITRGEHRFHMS
Assay: Ikaros degradation assay, H929 cell line
Format: cell-based
Details: NCI-H929; H929 cells, 10 uM, 24 h; read-out: % of IKZF1 protein reduction
We begin with a simple list: items and their reported inhibition at 10 µM.

Example cases with answers are listed next.
{"compound": "N[C@@H](Cc1cnc[nH]1)C(=O)NCc1ccc2c(c1)CN([C@H]1CCC(=O)NC1=O)C2=O [Compound 28]", "measured on": "Ikaros (IKZF1) (Homo sapiens, UniProt Q13422+Q96SW2)", "inhibition at 10 µM": "0 to 24%"}
{"compound": "Nc1c(O)ccc2c1C(=O)N(C1CCC(=O)NC1=O)C2=O (stereo not shown) [Compound 44]", "measured on": "Ikaros (IKZF1) (Homo sapiens, UniProt Q13422+Q96SW2)", "inhibition at 10 µM": "0 to 24%"}
{"compound": "O=C1CCC(N2Cc3cc(C(=O)O)c(F)cc3C2=O)C(=O)N1 (stereo not shown) [Compound 54]", "measured on": "Ikaros (IKZF1) (Homo sapiens, UniProt Q13422+Q96SW2)", "inhibition at 10 µM": "0 to 24%"}

Let us examine a further case.
Consider the compound N[C@@H](Cc1cnc[nH]1)C(=O)NCc1ccc2c(c1)CN([C@@H]1CCC(=O)NC1=O)C2=O [Compound 27] . State its measured inhibition at 10 µM.
0 to 24%

###

Test system: OPM-2
Assay: Cell viability, additional cell lines (CellTiter-Glo), OPM-2
Type: cell-based
Conditions: Homo sapiens, OPM-2, 72 h; read-out: Absolute IC50
Protocol: Tumor cells are grown at 37° C. in a humidified atmosphere with 5% CO2 in RPMI 1640 medium, supplemented with 10% (v/v) fetal calf serum and 50 μg/ml gentamicin for up to 20 passages, and are passaged once or twice weekly. […]
metric name: IC50 (nM)
Provide only the numeric value, understood in nM.

Look up and report measured IC50 (OPM-2) for the following compound: O=C1CCC(N2Cc3cc(CNC(=O)C(F)(F)c4ccc(Cl)cc4)ccc3C2=O)C(=O)N1 (centres unmarked) [CC-90009, reference compound]
74

###

Molecular target: GSPT1 (Homo sapiens, UniProt P15170+Q96SW2)
Construct: GSPT1 degradation in the Hep3B cell line was investigated; endogenous in cells; host or cells: Hep3B
Sequence (P15170 whole entry): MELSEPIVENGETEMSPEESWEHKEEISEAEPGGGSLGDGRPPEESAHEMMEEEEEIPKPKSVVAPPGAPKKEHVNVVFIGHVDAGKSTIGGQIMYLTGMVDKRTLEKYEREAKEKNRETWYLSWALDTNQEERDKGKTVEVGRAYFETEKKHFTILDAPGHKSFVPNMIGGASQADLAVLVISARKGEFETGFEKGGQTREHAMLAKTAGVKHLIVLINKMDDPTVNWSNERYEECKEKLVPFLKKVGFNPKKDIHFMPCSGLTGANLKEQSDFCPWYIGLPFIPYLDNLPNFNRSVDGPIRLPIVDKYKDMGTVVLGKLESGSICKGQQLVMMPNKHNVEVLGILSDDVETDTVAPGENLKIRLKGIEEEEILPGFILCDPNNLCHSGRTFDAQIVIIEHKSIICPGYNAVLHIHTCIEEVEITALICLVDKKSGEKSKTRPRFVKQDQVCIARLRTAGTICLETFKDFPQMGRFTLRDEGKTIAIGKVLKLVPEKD
Sequence (Q96SW2 whole entry): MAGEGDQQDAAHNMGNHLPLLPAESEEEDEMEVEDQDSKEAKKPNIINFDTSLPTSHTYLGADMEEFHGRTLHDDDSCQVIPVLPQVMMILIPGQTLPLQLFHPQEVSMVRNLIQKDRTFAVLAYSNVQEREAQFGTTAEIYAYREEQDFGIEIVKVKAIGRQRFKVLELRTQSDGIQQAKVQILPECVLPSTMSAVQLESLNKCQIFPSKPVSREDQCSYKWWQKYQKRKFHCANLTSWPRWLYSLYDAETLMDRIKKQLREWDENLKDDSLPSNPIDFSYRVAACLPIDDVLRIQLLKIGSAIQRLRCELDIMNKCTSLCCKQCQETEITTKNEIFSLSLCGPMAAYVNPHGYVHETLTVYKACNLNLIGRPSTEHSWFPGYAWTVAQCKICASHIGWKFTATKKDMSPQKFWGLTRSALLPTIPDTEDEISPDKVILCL
Sequence (Q16531 whole entry partner): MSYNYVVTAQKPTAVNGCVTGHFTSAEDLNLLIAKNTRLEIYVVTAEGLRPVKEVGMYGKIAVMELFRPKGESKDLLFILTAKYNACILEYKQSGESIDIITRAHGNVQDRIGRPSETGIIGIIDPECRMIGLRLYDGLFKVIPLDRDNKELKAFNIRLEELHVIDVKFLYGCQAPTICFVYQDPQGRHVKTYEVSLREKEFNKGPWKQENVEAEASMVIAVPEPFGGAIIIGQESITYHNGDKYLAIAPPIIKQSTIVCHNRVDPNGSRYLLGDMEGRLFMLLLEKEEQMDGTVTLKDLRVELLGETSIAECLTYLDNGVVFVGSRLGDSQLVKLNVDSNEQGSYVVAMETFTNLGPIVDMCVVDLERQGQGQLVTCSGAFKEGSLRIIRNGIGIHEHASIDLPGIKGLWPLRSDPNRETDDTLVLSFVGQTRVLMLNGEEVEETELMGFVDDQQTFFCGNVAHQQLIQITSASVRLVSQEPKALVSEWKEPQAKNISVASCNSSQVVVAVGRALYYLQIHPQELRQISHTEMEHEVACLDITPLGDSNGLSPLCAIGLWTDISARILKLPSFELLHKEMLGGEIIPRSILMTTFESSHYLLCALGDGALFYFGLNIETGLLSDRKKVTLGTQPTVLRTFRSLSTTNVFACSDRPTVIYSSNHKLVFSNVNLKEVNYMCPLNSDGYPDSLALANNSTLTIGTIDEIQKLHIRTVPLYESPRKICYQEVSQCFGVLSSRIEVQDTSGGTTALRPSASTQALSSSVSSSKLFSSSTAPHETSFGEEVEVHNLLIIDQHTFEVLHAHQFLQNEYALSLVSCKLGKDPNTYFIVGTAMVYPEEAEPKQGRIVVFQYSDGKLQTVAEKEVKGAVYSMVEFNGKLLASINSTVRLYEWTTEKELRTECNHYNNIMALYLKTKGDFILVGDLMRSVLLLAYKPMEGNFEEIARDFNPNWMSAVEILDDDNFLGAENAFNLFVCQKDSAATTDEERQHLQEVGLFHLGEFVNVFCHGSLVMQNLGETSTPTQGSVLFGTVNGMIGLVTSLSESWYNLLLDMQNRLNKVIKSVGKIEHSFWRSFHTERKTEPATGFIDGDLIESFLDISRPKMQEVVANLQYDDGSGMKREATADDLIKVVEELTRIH
Test: GSPT1 degradation assay, Hep3B cell line
Format: cell-based
Conditions: HEP3B cells, 10 uM, 24 h; read-out: % of GSPT1 protein reduction
metric name: inhibition at 10 µM

Observe how each entry below is paired with its result.
{"molecule": "NCc1cc2c(cc1F)C(=O)N(C1CCC(=O)NC1=O)C2 (centres unmarked) [Compound 3]", "measured on": "GSPT1 (Homo sapiens, UniProt P15170+Q96SW2)", "metric name": "inhibition at 10 µM", "test value": "80 to 100%"}
{"molecule": "NCc1ccc2c(c1)CN(C1CCC(=O)NC1=O)C2=O (centres unmarked) [Compound 1]", "measured on": "GSPT1 (Homo sapiens, UniProt P15170+Q96SW2)", "metric name": "inhibition at 10 µM", "test value": "80 to 100%"}

Dear colleague, please send me the reported inhibition at 10 µM for [2H]C([2H])(N)c1ccc2c(c1)CN(C1CCC(=O)NC1=O)C2=O (centres unmarked) [Compound 2] when you can.
80 to 100%

Identify the reported inhibition at 10 µM for the following entry. NCc1cc(F)c2c(c1)CN(C1CCC(=O)NC1=O)C2=O (centres unmarked) [Compound 7]
50 to 79%

Respond only with inhibition at 10 µM recorded for NCc1ccc2c(c1F)CN(C1CCC(=O)NC1=O)C2=O (centres unmarked) [Compound 5]
80 to 100%

Just for reference, patent US20240294489A1 is where these values come from.
